- SUBJECT_OF_TEST: TREK-1 channel (Homo sapiens, UniProt O95069)
- Construct: expressed in transfected cells; host or cells: COS-7 cells (ATCC CRL-1651), DEAE-dextran transfection
- Sequence (O95069 whole entry): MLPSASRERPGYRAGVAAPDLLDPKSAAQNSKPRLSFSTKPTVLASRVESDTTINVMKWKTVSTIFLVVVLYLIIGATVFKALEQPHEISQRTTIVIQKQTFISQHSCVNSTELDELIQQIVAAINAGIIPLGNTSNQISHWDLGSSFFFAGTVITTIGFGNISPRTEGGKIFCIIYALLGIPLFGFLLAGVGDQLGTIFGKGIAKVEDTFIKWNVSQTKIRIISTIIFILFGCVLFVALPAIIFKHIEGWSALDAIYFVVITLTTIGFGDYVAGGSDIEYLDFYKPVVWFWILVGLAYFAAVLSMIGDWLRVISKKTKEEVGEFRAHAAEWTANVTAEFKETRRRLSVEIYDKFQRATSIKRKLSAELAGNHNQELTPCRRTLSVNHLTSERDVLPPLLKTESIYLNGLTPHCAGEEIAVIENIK
- TEST: Whole-cell patch clamp of TREK-1 channel activity in transfected COS-7 cells
- Assay type: cell-based
- DETAILS: activated by 10 μM arachidonic acid; measured at 0 mV; read-out: half-effect concentration (IC50) of inhibition of TREK-1 channel activity
No end group written: not given here.
REPORTED_METRIC: IC50
# answer = value followed by unit

For record APLPRWSGPIGVSWGLR [propeptide, APLPRWSGPIGVSWGLR] the listed IC50 is 0.0707 µM
